Test name: chemical genetic growth profiling, strain panel (AID 1159580);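 further: tested at 20 µM; growth read once vehicle control cultures reached saturation at 30 °C; 1 = growth at the plate median or of vehicle wells; lower values mean less growth of the strain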
Details: S. cerevisiae deletion strains, growth OD, locus YLR371W, strain rom2, stronger effect = lower value
Out of some 5,500 compounds screened, about 2,000 (36%) were called active. Roughly 18% stayed inconclusive and do not appear here. The list shows a part of the results.

Compound: O=C1CCCCC/C=C/CCCCCCCCO1
normalized growth: 0.999

Compound: C[C@@H]1CC[C@H]2C(C)(C)C3CC12CC[C@@]3(C)O (stereo partly drawn)
normalized growth: 0.915

Compound: Cc1nnc(NS(=O)(=O)c2ccc(N)cc2)s1
normalized growth: 0.984

Compound: Cc1cc(CC(=O)O)n(C)c1C(=O)c1ccc(Cl)cc1
normalized growth: 1.02

Compound: O=C(O)CCCCCCCC(=O)O
normalized growth: 0.991

Compound: Cc1ccc(C(=O)c2ccc(CC(=O)O)n2C)cc1
normalized growth: 0.978

Compound: COc1ccc(-c2cc(=O)c3c(OC)cc(OC)cc3o2)cc1
normalized growth: 1.01

Compound: NCCCCC(=O)O
normalized growth: 0.995

Compound: CC(=O)NCCc1c[nH]c2ccc(O)cc12
normalized growth: 1.02

Compound: COc1cc(OC)c2c(=O)cc(-c3ccccc3)oc2c1
normalized growth: 0.959

Compound: CC(C)c1nc(N(C)S(C)(=O)=O)nc(-c2ccc(F)cc2)c1/C=C/[C@@H](O)C[C@@H](O)CC(=O)O
normalized growth: 1.01

Compound: COc1cc(C)c2c(=O)cc(-c3ccccc3)oc2c1
normalized growth: 0.966

Compound: NCCCC(=O)O
normalized growth: 1.03

====

We begin with a simple list: items and their reported normalized growth.
Test name: chemical genetic growth profiling, strain panel (AID 1159580);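 further: tested at 20 µM; growth read once vehicle control cultures reached saturation at 30 °C; 1 = growth at the plate median or of vehicle wells; lower values mean less growth of the strain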
Details: S. cerevisiae deletion strains, growth OD, locus YNL224C, strain SQS1, stronger effect = lower value
Out of some 5,500 compounds screened, about 2,000 (36%) were called active. Another 18% or so got no clear call; they are omitted. Some of the results follow.
Property label: normalized growth

Query smiles: COc1cc2c(CCNC(C)=O)c[nH]c2cc1Cl
Property label: normalized growth
Reported: 1

Query smiles: Cc1oncc1C(=O)Nc1ccc(C(F)(F)F)cc1
Property label: normalized growth
Reported: 0.94

Query smiles: CN(C)C(=O)Oc1ccc[n+](C)c1
Property label: normalized growth
Reported: 0.982

Query smiles: CC(C)c1ccc2c(c1)c(SC(C)(C)C)c(CC(C)(C)C(=O)O)n2Cc1ccc(Cl)cc1
Property label: normalized growth
Reported: 1.01

Query smiles: O=c1[nH]c2cc(C(F)(F)F)ccc2n1-c1cc(C(F)(F)F)ccc1O
Property label: normalized growth
Reported: 0.998

Query smiles: c1ccc(CN2CCC3(CCCc4ccccc43)CC2)cc1
Property label: normalized growth
Reported: 1.01

====

Test name: chemical genetic growth profiling, strain panel (AID 1159580);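 further: tested at 20 µM; growth read once vehicle control cultures reached saturation at 30 °C; 1 = growth at the plate median or of vehicle wells; lower values mean less growth of the strain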
Details: S. cerevisiae deletion strains, growth OD, locus YLR221C, strain rsa3, stronger effect = lower value
In all, about 5,500 compounds went through this assay and about 2,000 (36%) were called active. Another 18% or so got no clear call; they are omitted. The list shows a part of the results. Where a SMILES comes first, the peptide text is derived from it.
Listing of recorded normalized growth by entry.

Compound: CC(=O)O[C@@H]1CC2C(C)(C)[C@@H](O)CC[C@]2(C)C2CC[C@@]3(C)[C@H](c4ccoc4)OC(=O)[C@H]4O[C@]43[C@@]21C (some centres undefined)
normalized growth: 0.987
--
Compound: Cc1cc(CC(=O)O)n(C)c1C(=O)c1ccc(Cl)cc1
normalized growth: 1.01
--
Compound: COc1cc(C)c2c(=O)cc(-c3ccccc3)oc2c1
normalized growth: 0.887
--
Compound: CC1(C)C(=O)[C@@H]2O[C@@H]2[C@@]2(C)C1C[C@@H](O)[C@]1(C)C2CC[C@@]2(C)[C@H](c3ccoc3)OC(=O)C3OC321 (some centres undefined)
normalized growth: 0.999
--
Compound: O=c1oc2ccccc2cc1O
normalized growth: 1
--
Compound: COC(=O)[C@@H]1OC(=O)C2OC23[C@@]1(C)CCC1[C@]2(C)C(C[C@@H](O)[C@]13C)C(C)(C)[C@H](OC(C)=O)C[C@@H]2OC(C)=O (some centres undefined)
normalized growth: 0.999
--
Compound: CN(C)C(=O)Oc1ccc[n+](C)c1
normalized growth: 0.997
--
Compound: CC(=O)O[C@H]1C[C@@H](OC(C)=O)C(C)(C)C2C[C@@H](O)[C@]3(C)C(CC[C@@]4(C)[C@H](c5ccoc5)OC(=O)[C@H]5O[C@]543)[C@]21C (some centres undefined)
normalized growth: 0.969
--
Compound: CCCCCCCCCCCCCC(=O)OC1C(C)C2(O)C(C=C(CO)CC3(O)C(=O)C(C)=CC32)C2C(C)(C)C12OC(C)=O (centres undefined)
normalized growth: 0.972
--
Compound: CCC(C)C(=O)c1c(O)c(C)c2oc3c(C)c(O)c(C(=O)C(C)CC)c(O)c3c2c1O (centres undefined)
normalized growth: 0.957
--
Compound: COc1cc(NS(C)(=O)=O)ccc1Cc1c2ccccc2nc2ccccc12
normalized growth: 0.899
--
Compound: C1N2CN3CN1CN(C2)C3
normalized growth: 0.965
--
Compound: Fc1ccc([C@@H]2CCNC[C@H]2COc2ccc3c(c2)OCO3)cc1
normalized growth: 1.01
--
Compound: CC(=O)N[C@@H](CC(=O)O)C(=O)N[C@@H](CCC(=O)O)C(=O)O (Ac-Asp-Glu-OH)
normalized growth: 1
--
Compound: COc1c(C)c2c(c(O)c1C/C=C(\C)CCC(=O)O)C(=O)OC2
normalized growth: 0.376
--
Compound: COC(=O)/C(C)=C\CC12OC(C)(C)C3CC(C=C4C(=O)c5c(OC)c6c(c(CC=C(C)C)c5OC431)OC(C)(CCC=C(C)C)C=C6)C2=O (centres undefined)
normalized growth: 1.02
--
Compound: NCC[C@@H](O)C(=O)N[C@@H]1C[C@H](N)[C@@H](O[C@H]2O[C@H](CN)[C@@H](O)[C@H](O)[C@H]2O)[C@H](O)[C@H]1O[C@H]1O[C@H](CO)[C@@H](O)[C@H](N)C1O (some centres undefined)
normalized growth: 1.01
--
Compound: CC(=O)N[C@@H](CCC(=O)O)C(=O)O
normalized growth: 1
--
Compound: O=C1CCCN1CC#CCN1CCCC1
normalized growth: 1

====

Test name: chemical genetic growth profiling, strain panel (AID 1159580);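 further: tested at 20 µM; growth read once vehicle control cultures reached saturation at 30 °C; 1 = growth at the plate median or of vehicle wells; lower values mean less growth of the strain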
Details: S. cerevisiae deletion strains, growth OD, locus YGR078C, strain PAC10
Out of some 5,500 compounds screened, about 2,000 (36%) were called active. Another 18% or so got no clear call; they are omitted. Cut-off read from the data, not from the text of the source: active = normalized growth mostly below about 0.91 (no sharp cut-off); inconclusive = no clear call, values can overlap the other calls; inactive = mostly above about 0.92. The list shows a part of the results.
Outcomes: TRUE for active, FALSE for inactive

Compound: Cc1ccccc1N1CCN(S(=O)(=O)C[C@]23CCC(CC2NC(=O)[C@@H](N)CCS(C)(=O)=O)C3(C)C)CC1 (some centres not stated)
Discrete label: FALSE
//
Compound: CCCCCC(O)c1cccc(OCc2ccc3ccccc3n2)c1 (configuration not stated)
Discrete label: FALSE
//
Compound: Brc1ccc([C@H]2CN3CCSC3=N2)cc1
Discrete label: FALSE
//
Compound: Cc1cc2c3c(c1)c(O)cc(=O)n3CCC2
Discrete label: FALSE
//
Compound: C[N+]1(C)CCc2cc3c(cc2[C@H]1[C@@H]1OC(=O)c2c1ccc1c2OCO1)OCO3
Discrete label: FALSE
//
Compound: OCc1nccn1Cc1ccc(Cl)cc1
Discrete label: FALSE
//
Compound: COC(=O)c1cscc1Sc1ccc(Cl)cc1
Discrete label: FALSE
//
Compound: C=C[C@@]1(C)CC(=O)[C@@]2(O)[C@](C)(O1)[C@@H](OC(C)=O)[C@@H](O)C1C(C)(C)CC[C@H](O)[C@@]12C (some centres not stated)
Discrete label: FALSE
//
Compound: COC(=O)[C@@H]1OC(=O)C2OC23[C@@]1(C)CCC1[C@@]2(C)CCC(=O)C(C)(C)C2C[C@@H](OC(C)=O)[C@]13C (some centres not stated)
Discrete label: FALSE
//
Compound: CSc1ccc(C(=O)c2[nH]c(=O)[nH]c2C)cc1
Discrete label: FALSE
//
Compound: Cc1cc(CC(=O)O)n(C)c1C(=O)c1ccc(Cl)cc1
Discrete label: FALSE
//
Compound: CCN1CN=C(SCc2ccc(Br)cc2)NC1
Discrete label: FALSE
//
Compound: COc1ccc(C(=O)c2sc(Nc3ccccc3)nc2-c2ccccc2)cc1
Discrete label: FALSE
//
Compound: O=C(Oc1ccc(Cl)cc1Cl)c1c(Cl)cccc1Cl
Discrete label: FALSE
//
Compound: COc1cscc1C(N)=O
Discrete label: FALSE
//
Compound: NC(=O)NC1NC(=O)NC1=O (configuration not stated)
Discrete label: FALSE
//
Compound: O=C(O)COc1ccc(Cl)cc1Cl
Discrete label: FALSE
//
Compound: COc1cc2nc(N3CCN(C(=O)OCc4ccccc4)C(C(=O)NC(C)(C)C)C3)nc(N)c2cc1OC (configuration not stated)
Discrete label: FALSE
//
Compound: CCOC(=O)c1ccc(Oc2sccc2[N+](=O)[O-])cc1
Discrete label: TRUE
//
Compound: NCC[C@@H](O)C(=O)N[C@@H]1C[C@H](N)[C@@H](O[C@H]2O[C@H](CN)[C@@H](O)[C@H](O)[C@H]2O)[C@H](O)[C@H]1O[C@H]1O[C@H](CO)[C@@H](O)[C@H](N)C1O (some centres not stated)
Discrete label: FALSE
//
Compound: COc1ccc2c(c1)c(CC(=O)O)c(C)n2Cc1ccc(Cl)cc1
Discrete label: FALSE
//
Compound: Cc1oncc1C(=O)Nc1ccc(C(F)(F)F)cc1
Discrete label: FALSE

// data source = PubChem BioAssay AID1159580
